# TARGET OR TEST SYSTEM: UniProt:P16234
# Sequence (P16234 24-1089): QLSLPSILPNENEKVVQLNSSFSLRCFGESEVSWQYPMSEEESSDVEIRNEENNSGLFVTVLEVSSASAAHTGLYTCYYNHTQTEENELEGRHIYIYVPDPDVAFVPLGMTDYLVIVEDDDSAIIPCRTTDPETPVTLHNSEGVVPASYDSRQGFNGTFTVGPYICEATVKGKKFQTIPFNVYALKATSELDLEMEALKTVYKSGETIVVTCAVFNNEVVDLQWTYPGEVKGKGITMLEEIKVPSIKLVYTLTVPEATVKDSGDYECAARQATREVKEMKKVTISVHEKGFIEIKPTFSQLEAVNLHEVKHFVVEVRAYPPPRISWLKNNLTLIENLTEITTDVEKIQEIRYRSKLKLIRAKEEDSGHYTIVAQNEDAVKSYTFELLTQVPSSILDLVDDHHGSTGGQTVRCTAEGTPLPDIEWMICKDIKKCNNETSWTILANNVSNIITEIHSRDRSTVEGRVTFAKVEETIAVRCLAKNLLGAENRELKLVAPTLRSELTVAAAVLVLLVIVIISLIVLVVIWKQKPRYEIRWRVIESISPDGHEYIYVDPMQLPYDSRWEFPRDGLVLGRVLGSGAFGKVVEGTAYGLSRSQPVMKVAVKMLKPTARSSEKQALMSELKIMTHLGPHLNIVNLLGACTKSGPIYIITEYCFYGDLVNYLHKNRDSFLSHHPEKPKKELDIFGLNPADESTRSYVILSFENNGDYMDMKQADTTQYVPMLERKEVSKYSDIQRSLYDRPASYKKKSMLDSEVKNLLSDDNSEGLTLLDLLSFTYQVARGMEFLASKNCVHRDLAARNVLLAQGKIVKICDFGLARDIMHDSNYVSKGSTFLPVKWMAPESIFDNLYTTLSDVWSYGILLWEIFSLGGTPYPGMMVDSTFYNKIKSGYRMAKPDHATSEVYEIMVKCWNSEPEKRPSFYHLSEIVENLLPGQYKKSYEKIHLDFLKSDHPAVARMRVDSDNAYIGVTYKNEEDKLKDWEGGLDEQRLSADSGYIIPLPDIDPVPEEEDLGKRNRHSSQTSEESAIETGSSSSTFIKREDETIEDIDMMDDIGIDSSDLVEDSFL
# EXPERIMENT SUMMARY: PDGFRα kinase enzyme assay (Promega PDGFRα Kinase Enzyme System, ADP-Glo)
# Type: biochemical
# DETAILS: 11-point dose response, 10,000 nM to 0.169 nM; 150 uM ATP; BLQ = below limit of quantitation; read-out: IC50 Values on PDGFRα Kinase Inhibition, IC50
For each entry below, report its IC50 value.

Ask: Which value of IC50 has been reported for CN(CCN(C)c1cnc2nc(-c3cccnc3)ccn12)C(=O)OC(C)(C)C [Compound 112] in the records?
Result: > 10000 nM

Ask: Moving on to the next molecule: Cn1cc(-c2ccc3c(N4CCN(c5ncc(S(=O)(=O)c6ccccc6)cn5)CC4)cnn3c2)cn1 [Compound 186]
Result: > 10000 nM

Ask: Moving on to the next molecule: Cn1cc(-c2ccn3c(N4CCN(c5ncc(Cc6ccccc6)cn5)CC4)nnc3c2)cn1 [Compound 24]
Result: > 10000 nM

Ask: Moving on to the next molecule: Cc1ccc(C(C)OC(=O)N2CCN(c3cnn4cc(-c5cnn(C)c5)ccc34)CC2)nc1 (stereo not shown) [Compound 261]
Result: 17.1 nM

Ask: Moving on to the next molecule: Cc1cn(-c2ccn3c(N4CCN(C(=O)OC(C)(C)C)CC4)cnc3n2)cn1 [Compound 104]
Result: 2800 nM

Ask: Moving on to the next molecule: CC(C)(C)OC(=O)N1CCCN(c2cnc3nc(-c4cccnc4)ccn23)CC1 [Compound 106]
Result: > 10000 nM

Ask: Moving on to the next molecule: Cc1cnc(COC(=O)N2CCN(c3cnn4cc(-c5cnn(C)c5)ccc34)CC2)o1 [Compound 199]
Result: 1240 nM

Ask: Moving on to the next molecule: Cn1cc(-c2ccc3c(N4CCN(C(=O)NCc5ccc(Cl)cc5)CC4)cnn3c2)cn1 [Compound 275]
Result: 67 nM

Ask: Moving on to the next molecule: CN(CCN(C)c1cnc2nc(C3CCOC3)ccn12)C(=O)OC(C)(C)C (stereo not shown) [Compound 100]
Result: > 10000 nM

Ask: Moving on to the next molecule: COc1ccccc1-c1ccc2c(N3CCN(C(=O)OC(C)(C)C)CC3)cnn2c1 [Compound 212]
Result: 3670 nM

Ask: Moving on to the next molecule: Cn1cc(-c2ccc3c(N4CCN(c5ncc(Cc6ncco6)cn5)CC4)cnn3c2)cn1 [Compound 170]
Result: 2380 nM

Ask: Moving on to the next molecule: Cn1cc(-c2ccc3c(C4=CCN(c5ncc(Cc6ccccc6)cn5)C4)cnn3c2)cn1 [Compound 51]
Result: 423 nM

Ask: Moving on to the next molecule: Cn1cc(-c2ccc3c(NCCCNc4ncc(Cc5ccccc5)cn4)cnn3c2)cn1 [Compound 124]
Result: > 10000 nM

====

For each entry below, report its GPR17 Fold Induction (Over Vehicle; 3 μM) value.
# Test system: Oligodendrocyte progenitor cells (OPCs)
# EXPERIMENT SUMMARY: In vitro OPC differentiation assay, GPR17 expression (immunocytochemistry)
# DETAILS: 3 μM (10× concentration, final 0.3 μM); 72 hours; fold change over vehicle
Write the number on its own, no unit after it.

Ask: Param readout = GPR17 Fold Induction (Over Vehicle; 3 μM); param system = Oligodendrocyte progenitor cells (OPCs); param query = Cn1cc(-c2ccc3c(C4CCC(COc5ccccc5)CC4)cnn3c2)cn1 (centres unmarked) ; response: value
Result: 0.98

Ask: Moving on to the next molecule: C[C@@H](OC(=O)N1CCN(c2cnn3nc(-c4cnn(C)c4)ccc23)CC1)c1ccccc1
Result: 5.00

Ask: Moving on to the next molecule: CC(C)(C)OC(=O)N1CCCN(c2cnc3cc(C4CCOC4)ncn23)CC1 (centres unmarked)
Result: 1.00

Ask: Moving on to the next molecule: CN(CCNc1cnn2cc(-c3cnn(C)c3)ccc12)c1ncc(Cc2ccccc2)cn1
Result: 5.91

Ask: Moving on to the next molecule: COCCn1cc(-c2ccn3c(N4CCN(C(=O)OC(C)(C)C)CC4)cnc3n2)cn1
Result: 0.67

Source: patent US20250129067A1
